Assay: Salt form assessment (crystallization propensity, DSC/XRPD physical properties, appearance, counter-ion acceptability, salt suitability)
Format: physicochemical
Set-up: key: “+/+/+” indicates most favorable; “+/+” indicates more favorable; “+” indicates favorable; “−” indicates unfavorable; “−/−” indicates more unfavorable; “−/−/−” indicates most unfavorable

molecule: CN(C)CCc1c[nH]c2ccccc12 [Example 9]
Appearance: −

molecule: CN(C)CCc1c[nH]c2ccccc12 [Example 5]
Appearance: +/+

molecule: CN(C)CCc1c[nH]c2ccccc12 [Example 3]
Appearance: +/+/+

molecule: CN(C)CCc1c[nH]c2ccccc12 [Example 2]
Appearance: +/+/+

molecule: CN(C)CCc1c[nH]c2ccccc12 [Example 1]
Appearance: +/+/+

molecule: CN(C)CCc1c[nH]c2ccccc12 [Example 8]
Appearance: −

molecule: CN(C)CCc1c[nH]c2ccccc12 [Example 7]
Appearance: −

molecule: CN(C)CCc1c[nH]c2ccccc12 [Example 6]
Appearance: +/+/+

molecule: CN(C)CCc1c[nH]c2ccccc12 [Example 4]
Appearance: +/+/+
